assay: method code SF-AS, from PMID: 2985094; conditions: pH 7.4
value kind: logD
// return just the number, without any unit appended

// query Report logD, nothing else, for this molecule: `C=COCCn1cnc2[nH]c(=O)n(C)c(=N)c21`
// result -0.78

// query Kindly indicate its recorded logD. Item: `C=CCn1cnc2c(=N)n(C)c(=O)[nH]c21`
// result -0.57

// query Consider the molecule `COCCOCn1cnc2c(=N)n(C)c(=O)[nH]c21` and give its recorded logD.
// result -1.52

// query Note logD for the molecule shown: `CC(=O)OCCn1cnc2[nH]c(=O)n(C)c(=N)c21`
// result -1.2

----------
Here the recorded logD is given for each entry.
experiment: method code SF-AS, from PMID: 2985094; details: pH 7.4
Output spec: single numeric token, no unit.

- Cn1c(=O)[nH]c2ncn(C)c2c1=N: -2.27

// query Please report logD for the following compound: `Cn1c(N)c2c(ncn2Cc2ccccc2)nc1=O`
// result 0.07

// query Please supply the value of reported logD for the item `COCCn1cnc2nc(=O)n(C)c(N)c21`
// result -1.49

----------
assay: method code SF-AS, from PMID: 2985094; conditions: pH 7.4
Listed here: items and their measured logD.
Output: the number by itself.

* Cn1c(=O)[nH]c2ncn(CCCC(=O)c3ccc(F)cc3)c2c1=N | -1.04
* CCSCCn1cnc2c(=N)n(C)c(=O)[nH]c21 | 0
* Cn1c(=O)[nH]c2ncn(CCc3ccc(Br)cc3)c2c1=N | 1.25

// query # return recorded logD for entry `CCSCCn1cnc2[nH]c(=O)n(C)c(=N)c21`
// result -0.13

----------
logD: recorded values
experiment: method code SF-AS, from PMID: 2985094; settings: pH 7.4
Respond numerically, and do not add a unit to the figure.

- COCn1cnc2[nH]c(=O)n(C)c(=N)c21: -2.41

// query State its logD for this molecule: `COCn1cnc2nc(=O)n(C)c(N)c21`
// result -2.41

// query Specify measured logD for `C=COCCn1cnc2c(=N)n(C)c(=O)[nH]c21` .
// result -0.24

// query Determine from records and report logD for `CCOCCn1cnc2[nH]c(=O)n(C)c(=N)c21`
// result -1.1

// query Provide measured logD value, entry: `COCn1cnc2c(=N)n(C)c(=O)[nH]c21`
// result -1.22

// query Please list logD recorded for the molecule `Cn1c(N)c2ncn(Cc3ccccc3)c2nc1=O`
// result 0.65

// query Specify measured logD for `COCCn1cnc2c(N)n(C)c(=O)nc21` .
// result -0.96

// query Report logD for `CCOCCn1cnc2c(N)n(C)c(=O)nc21`
// result -0.4

// query Fill in logD for record `CCOC(=O)CCn1cnc2c(=N)n(C)c(=O)[nH]c21`
// result -0.45

// query Recall and state the measured logD for `Cn1c(=O)[nH]c2c(ncn2CCCC(=O)c2ccc(F)cc2)c1=N` .
// result 0.44
